src = ChEMBL document CHEMBL5113443

# measured_target: DNA repair protein RAD51 homolog 1 (Homo sapiens)
# assay_name: Binding affinity to RAD51 (158 to 180 residues) (unknown origin) assessed as quenching rate constant by fluorescence spectroscopy
Where a SMILES comes first, the peptide text is derived from it. The star is where a group is joined. X5 = O=C(c1ccc[n+]([O-])c1)*; X3 = O=C(c1cccnc1Br)*; X4 = Cc1ccncc1C(=O)*; X6 = O=C(c1cccnc1S)*
The entries below are paired with their reported Kq.

molecule="CC(C)C[C@H](NC(=O)[C@H](Cc1ccc(O)cc1)NC(=O)c1ccc[n+]([O-])c1)C(=O)N[C@@H](CCC(N)=O)C(=O)N[C@@H](CC(N)=O)C(=O)N[C@H](C(=O)N[C@@H](Cc1ccccc1)C(=O)N[C@@H](CCCCN)C(=O)N[C@H](C(=O)N[C@@H](CO)C(=O)N[C@@H](CCCCN)C(=O)N[C@@H](CCCNC(=N)N)C(=O)N[C@@H](CCC(N)=O)C(=O)N[C@@H](CO)C(=O)N[C@@H](Cc1ccccc1)C(=O)N[C@@H](C)C(=O)N1CCC[C@H]1C(N)=O)C(C)C)[C@@H](C)O (X5-YLQNTFKVSKRQSFAP-NH2)" measured_target="DNA repair protein RAD51 homolog 1 (Homo sapiens)" measured="1.34 10^12/M"

For the molecule Cc1ccncc1C(=O)N[C@@H](Cc1ccc(O)cc1)C(=O)N[C@@H](CC(C)C)C(=O)N[C@@H](CCC(N)=O)C(=O)N[C@@H](CC(N)=O)C(=O)N[C@H](C(=O)N[C@@H](Cc1ccccc1)C(=O)N[C@@H](CCCCN)C(=O)N[C@H](C(=O)N[C@@H](CO)C(=O)N[C@@H](CCCCN)C(=O)N[C@@H](CCCNC(=N)N)C(=O)N[C@@H](CCC(N)=O)C(=O)N[C@@H](CO)C(=O)N[C@@H](Cc1ccccc1)C(=O)N[C@@H](C)C(=O)N1CCC[C@H]1C(N)=O)C(C)C)[C@@H](C)O (X4-YLQNTFKVSKRQSFAP-NH2) , what Kq is on record?
1.77 10^12/M

Follow-up entry: CC(C)C[C@H](NC(=O)[C@H](Cc1ccc(O)cc1)NC(=O)c1cccnc1Br)C(=O)N[C@@H](CCC(N)=O)C(=O)N[C@@H](CC(N)=O)C(=O)N[C@H](C(=O)N[C@@H](Cc1ccccc1)C(=O)N[C@@H](CCCCN)C(=O)N[C@H](C(=O)N[C@@H](CO)C(=O)N[C@@H](CCCCN)C(=O)N[C@@H](CCCNC(=N)N)C(=O)N[C@@H](CCC(N)=O)C(=O)N[C@@H](CO)C(=O)N[C@@H](Cc1ccccc1)C(=O)N[C@@H](C)C(=O)N1CCC[C@H]1C(N)=O)C(C)C)[C@@H](C)O (X3-YLQNTFKVSKRQSFAP-NH2)
1.7 10^12/M

Follow-up entry: CC(C)C[C@H](NC(=O)[C@H](Cc1ccc(O)cc1)NC(=O)c1cccnc1S)C(=O)N[C@@H](CCC(N)=O)C(=O)N[C@@H](CC(N)=O)C(=O)N[C@H](C(=O)N[C@@H](Cc1ccccc1)C(=O)N[C@@H](CCCCN)C(=O)N[C@H](C(=O)N[C@@H](CO)C(=O)N[C@@H](CCCCN)C(=O)N[C@@H](CCCNC(=N)N)C(=O)N[C@@H](CCC(N)=O)C(=O)N[C@@H](CO)C(=O)N[C@@H](Cc1ccccc1)C(=O)N[C@@H](C)C(=O)N1CCC[C@H]1C(N)=O)C(C)C)[C@@H](C)O (X6-YLQNTFKVSKRQSFAP-NH2)
5.85 10^12/M

---

The entries below are paired with their reported Binding constant.
# measured_target: DNA repair protein RAD51 homolog 1 (Homo sapiens) (UniProt Q06609)
# Sequence (Q06609 whole entry, the tested form may be a part): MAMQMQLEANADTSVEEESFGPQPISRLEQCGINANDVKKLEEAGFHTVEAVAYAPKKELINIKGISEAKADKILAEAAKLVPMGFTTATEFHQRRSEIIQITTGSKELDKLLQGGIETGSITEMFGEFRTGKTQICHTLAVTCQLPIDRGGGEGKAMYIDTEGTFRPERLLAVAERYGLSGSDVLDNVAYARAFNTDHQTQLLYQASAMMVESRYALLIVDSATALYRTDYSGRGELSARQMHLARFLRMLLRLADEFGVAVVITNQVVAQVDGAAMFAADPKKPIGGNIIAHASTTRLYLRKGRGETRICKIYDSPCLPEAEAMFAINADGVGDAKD
# assay_name: Binding affinity to RAD51 (158 to 180 residues) (unknown origin) assessed as binding constant by fluorescence spectroscopy
Where a SMILES comes first, the peptide text is derived from it. The star is where a group is joined. Nicotinoyl = O=C(c1cccnc1)*; X2 = O=C(c1cccnc1C(F)(F)F)*; X3 = O=C(c1cccnc1Br)*; X4 = Cc1ccncc1C(=O)*; X6 = O=C(c1cccnc1S)*

Use the examples below as a reference point.
compound="Cc1ccncc1C(=O)N[C@@H](Cc1ccc(O)cc1)C(=O)N[C@@H](CC(C)C)C(=O)N[C@@H](CCC(N)=O)C(=O)N[C@@H](CC(N)=O)C(=O)N[C@H](C(=O)N[C@@H](Cc1ccccc1)C(=O)N[C@@H](CCCCN)C(=O)N[C@H](C(=O)N[C@@H](CO)C(=O)N[C@@H](CCCCN)C(=O)N[C@@H](CCCNC(=N)N)C(=O)N[C@@H](CCC(N)=O)C(=O)N[C@@H](CO)C(=O)N[C@@H](Cc1ccccc1)C(=O)N[C@@H](C)C(=O)N1CCC[C@H]1C(N)=O)C(C)C)[C@@H](C)O (X4-YLQNTFKVSKRQSFAP-NH2)" measured="0.76 10^4/M"
compound="CC(C)C[C@H](NC(=O)[C@H](Cc1ccc(O)cc1)NC(=O)c1cccnc1)C(=O)N[C@@H](CCC(N)=O)C(=O)N[C@@H](CC(N)=O)C(=O)N[C@H](C(=O)N[C@@H](Cc1ccccc1)C(=O)N[C@@H](CCCCN)C(=O)N[C@H](C(=O)N[C@@H](CO)C(=O)N[C@@H](CCCCN)C(=O)N[C@@H](CCCNC(=N)N)C(=O)N[C@@H](CCC(N)=O)C(=O)N[C@@H](CO)C(=O)N[C@@H](Cc1ccccc1)C(=O)N[C@@H](C)C(=O)N1CCC[C@H]1C(N)=O)C(C)C)[C@@H](C)O (Nicotinoyl-YLQNTFKVSKRQSFAP-NH2)" measured="1.26 10^4/M"
compound="CC(C)C[C@H](NC(=O)[C@H](Cc1ccc(O)cc1)NC(=O)c1cccnc1C(F)(F)F)C(=O)N[C@@H](CCC(N)=O)C(=O)N[C@@H](CC(N)=O)C(=O)N[C@H](C(=O)N[C@@H](Cc1ccccc1)C(=O)N[C@@H](CCCCN)C(=O)N[C@H](C(=O)N[C@@H](CO)C(=O)N[C@@H](CCCCN)C(=O)N[C@@H](CCCNC(=N)N)C(=O)N[C@@H](CCC(N)=O)C(=O)N[C@@H](CO)C(=O)N[C@@H](Cc1ccccc1)C(=O)N[C@@H](C)C(=O)N1CCC[C@H]1C(N)=O)C(C)C)[C@@H](C)O (X2-YLQNTFKVSKRQSFAP-NH2)" measured="4.07 10^4/M"
compound="CC(C)C[C@H](NC(=O)[C@H](Cc1ccc(O)cc1)NC(=O)c1cccnc1S)C(=O)N[C@@H](CCC(N)=O)C(=O)N[C@@H](CC(N)=O)C(=O)N[C@H](C(=O)N[C@@H](Cc1ccccc1)C(=O)N[C@@H](CCCCN)C(=O)N[C@H](C(=O)N[C@@H](CO)C(=O)N[C@@H](CCCCN)C(=O)N[C@@H](CCCNC(=N)N)C(=O)N[C@@H](CCC(N)=O)C(=O)N[C@@H](CO)C(=O)N[C@@H](Cc1ccccc1)C(=O)N[C@@H](C)C(=O)N1CCC[C@H]1C(N)=O)C(C)C)[C@@H](C)O (X6-YLQNTFKVSKRQSFAP-NH2)" measured="0.72 10^4/M"

Let us move to another entry and its Binding constant.
For the compound CC(C)C[C@H](NC(=O)[C@H](Cc1ccc(O)cc1)NC(=O)c1cccnc1Br)C(=O)N[C@@H](CCC(N)=O)C(=O)N[C@@H](CC(N)=O)C(=O)N[C@H](C(=O)N[C@@H](Cc1ccccc1)C(=O)N[C@@H](CCCCN)C(=O)N[C@H](C(=O)N[C@@H](CO)C(=O)N[C@@H](CCCCN)C(=O)N[C@@H](CCCNC(=N)N)C(=O)N[C@@H](CCC(N)=O)C(=O)N[C@@H](CO)C(=O)N[C@@H](Cc1ccccc1)C(=O)N[C@@H](C)C(=O)N1CCC[C@H]1C(N)=O)C(C)C)[C@@H](C)O (X3-YLQNTFKVSKRQSFAP-NH2) , what Binding constant is on record?
0.18 10^4/M

---

# measured_target: DNA repair protein RAD51 homolog 1 (Homo sapiens)
# assay_name: Binding affinity to RAD51 (158 to 180 residues) (unknown origin) assessed as beta-sheet content at 15 uM by circular dichroism spectroscopy (reference value: 17.7%)
Where a SMILES comes first, the peptide text is derived from it. The star is where a group is joined. Nicotinoyl(6-CF3) = O=C(c1ccc(C(F)(F)F)nc1)*; X5 = O=C(c1ccc[n+]([O-])c1)*; X2 = O=C(c1cccnc1C(F)(F)F)*
The entries below are paired with their reported Activity.
Kindly format the answer as number then unit.

Lookup: Activity / DNA repair protein RAD51 homolog 1 (Homo sapiens) / CC(C)C[C@H](NC(=O)[C@H](Cc1ccc(O)cc1)NC(=O)c1ccc(C(F)(F)F)nc1)C(=O)N[C@@H](CCC(N)=O)C(=O)N[C@@H](CC(N)=O)C(=O)N[C@H](C(=O)N[C@@H](Cc1ccccc1)C(=O)N[C@@H](CCCCN)C(=O)N[C@H](C(=O)N[C@@H](CO)C(=O)N[C@@H](CCCCN)C(=O)N[C@@H](CCCNC(=N)N)C(=O)N[C@@H](CCC(N)=O)C(=O)N[C@@H](CO)C(=O)N[C@@H](Cc1ccccc1)C(=O)N[C@@H](C)C(=O)N1CCC[C@H]1C(N)=O)C(C)C)[C@@H](C)O ({Nicotinoyl(6-CF3)}-YLQNTFKVSKRQSFAP-NH2)
11.2%

Follow-up entry: CC(C)C[C@H](NC(=O)[C@@H](N)Cc1ccc(O)cc1)C(=O)N[C@@H](CCC(N)=O)C(=O)N[C@@H](CC(N)=O)C(=O)N[C@H](C(=O)N[C@@H](Cc1ccccc1)C(=O)N[C@@H](CCCCN)C(=O)N[C@H](C(=O)N[C@@H](CO)C(=O)N[C@@H](CCCCN)C(=O)N[C@@H](CCCNC(=N)N)C(=O)N[C@@H](CCC(N)=O)C(=O)N[C@@H](CO)C(=O)N[C@@H](Cc1ccccc1)C(=O)N[C@@H](C)C(=O)N1CCC[C@H]1C(=O)O)C(C)C)[C@@H](C)O (H-YLQNTFKVSKRQSFAP-OH)
18.5%

Follow-up entry: CC(C)C[C@H](NC(=O)[C@H](Cc1ccc(O)cc1)NC(=O)c1ccc[n+]([O-])c1)C(=O)N[C@@H](CCC(N)=O)C(=O)N[C@@H](CC(N)=O)C(=O)N[C@H](C(=O)N[C@@H](Cc1ccccc1)C(=O)N[C@@H](CCCCN)C(=O)N[C@H](C(=O)N[C@@H](CO)C(=O)N[C@@H](CCCCN)C(=O)N[C@@H](CCCNC(=N)N)C(=O)N[C@@H](CCC(N)=O)C(=O)N[C@@H](CO)C(=O)N[C@@H](Cc1ccccc1)C(=O)N[C@@H](C)C(=O)N1CCC[C@H]1C(N)=O)C(C)C)[C@@H](C)O (X5-YLQNTFKVSKRQSFAP-NH2)
13.2%

Follow-up entry: CC(C)C[C@H](NC(=O)[C@H](Cc1ccc(O)cc1)NC(=O)c1cccnc1C(F)(F)F)C(=O)N[C@@H](CCC(N)=O)C(=O)N[C@@H](CC(N)=O)C(=O)N[C@H](C(=O)N[C@@H](Cc1ccccc1)C(=O)N[C@@H](CCCCN)C(=O)N[C@H](C(=O)N[C@@H](CO)C(=O)N[C@@H](CCCCN)C(=O)N[C@@H](CCCNC(=N)N)C(=O)N[C@@H](CCC(N)=O)C(=O)N[C@@H](CO)C(=O)N[C@@H](Cc1ccccc1)C(=O)N[C@@H](C)C(=O)N1CCC[C@H]1C(N)=O)C(C)C)[C@@H](C)O (X2-YLQNTFKVSKRQSFAP-NH2)
26.3%
